Source listed as patent US20250049736A1.

# Measured on: inducible nitric oxide synthase (iNOS) (Mus musculus (Mouse), UniProt P29477)
# Test: iNOS inhibition primary assay
# Format: biochemical
# Cond: 10 μM of each compound; mouse cell line
Assign % iNOS inhibition to each entry below.
Give bare numbers, in %.

Req: Recorded % iNOS inhibition for C[Se]C(=N)NC(=NS(=O)(=O)c1ccc(C(C)(C)C)cc1)NC12CC3CC(CC(C3)C1)C2 [Compound 9b] , please?
Resp: 95

// for each compound below, give its % iNOS inhibition
1. COc1ccc(S(=O)(=O)/N=C(\N=C(/N)[Se]C)NC23CC4CC(CC(C4)C2)C3)cc1 [Compound 9c]
2. C[Se]C(=N)NC(=NS(=O)(=O)c1ccc(C#N)cc1)NC12CC3CC(CC(C3)C1)C2 [Compound 9h]

Resp:
1. 94
2. 93

// for each compound below, give its % iNOS inhibition
1. C[Se]/C(N)=N/C(=NS(=O)(=O)c1ccc(OC(F)(F)F)cc1)NC12CC3CC(CC(C3)C1)C2 [Compound 9i]
2. CSC(=N)NC(=NS(=O)(=O)c1ccc(C(C)(C)C)cc1)NC12CC3CC(CC(C3)C1)C2 [Compound 8b]
3. C[Se]C(=N)NC(=NS(=O)(=O)c1ccc(C(F)(F)F)cc1)NC12CC3CC(CC(C3)C1)C2 [Compound 9j]

Resp:
1: 87; 2: 52; 3: 90
